tested on: JeKo-1 cells; experiment: Tumor cell growth inhibition by MTS method, JeKo-1; format: cell-based; settings: Homo sapiens, JeKo-1, 120 h, 10 μM, 5 days of culture, read-out: cell growth inhibition rate of compounds at 10 μM
inhibition at 10 µM overview

[
  {
    "smiles text": "Cc1ccc(C(=O)Nc2cc(C(F)(F)F)ccc2Cl)cc1Nc1nc(-c2cccnc2)c2[nH]ccc2n1",
    "inhibition at 10 µM (%)": 46.6
  },
  {
    "smiles text": "Cc1ccc(C(=O)Nc2cc(C(F)(F)F)ccc2F)cc1Nc1nc(-c2cccnc2)c2[nH]ccc2n1",
    "inhibition at 10 µM (%)": 34.3
  },
  {
    "smiles text": "Cc1ccc(NC(=O)c2cccc(C(F)(F)F)c2)cc1Nc1cc(-c2ccncc2)nc2sccc12",
    "inhibition at 10 µM (%)": 17.3
  },
  {
    "smiles text": "Cc1ccc(C(=O)Nc2cccc(C(F)(F)F)c2)cc1Nc1nc(-c2ccncc2)nc2ccn(C)c12",
    "inhibition at 10 µM (%)": 17.2
  }
]

# credit: patent US11352354B2
